# tgt: SARS-CoV-2 Spike S1 protein (SARS-CoV-2, UniProt P0DTC2 16-685)
Could you please report measured kon for the items listed next?

The examples below pair each entry with its known result.
binder	kon
rabbit monoclonal antibody 1A3 against the SARS-CoV-2 S1 (antibody, V domains shown) VH: QSLEESGGRLVTPGTPLTLTCTVSGFSFSSYHMGWVRQAPGEGLEWIGTLIGIAGNTYYASWAKGRFSISKTSTTVDLKMTSPTTEDTATYWCARIVTATFEFWGPGTLVTVSS VL: AQVLTQTPSPVSAAVGGTVTISCQASQSVNMNLLSWFQQKPGQPPKLLIYQASNLASGVSARFKGSGSGTQFTLTINEIQCDDAATYYCQGDMGGWMFPFGGGTEVVVTG	174000 M⁻¹ s⁻¹
rabbit monoclonal antibody 1D2 against the SARS-CoV-2 S1 (antibody, V domains shown) VH: QSVEESGGRLVTPGTSLTLTCTVSGIDIETYWMSWVRQAPGKGLEWIAIITSHDHSGYANWAEGRFTISKTSTTVTLTITDLQPSDTGTYFCAKDVGHSTYDLWGPGTLVTVSS VL: AAVLTQTPSPVSAAVGGTVTISCQSSESVLSNNRLSWYQQKPGQPPKLLIYAASTLASGVPSRFKGRGSGTQFTLTISDVQCDDAAMYVCAGAFSGSSDTRAFGGGTEVVVKG	72900 M⁻¹ s⁻¹

Now take the following binder into account.
Return reported kon; argument: rabbit monoclonal antibody 9A5 against the SARS-CoV-2 S1 (antibody, V domains shown) VH: QSVEESGGRLVTPGTPLTLTCTVSGFSLSAYQMIWVRQTPGKGLEYIGIMHTGTSAYYANWAKGRFTISKTSSTTVDLKMTSPTTEDTATYFCGRNLNEGFTGAYPFNLWGPGTLVAVSS VL: DVVMTQTPASVEAAVGGTVTIKCQASQSIGSNLAWYQKKPGQPPKLLIYQASNLASGVPSRFKGSGSGTQFTLTISDLECADAATYYCQMNYYISSSYTYTFGGGTEVVVKG
132000 M⁻¹ s⁻¹
